Tested on: TO-3-N3 (biotin conjugate)
Experiment: pull-down binding Z-score (relative to library population); higher = stronger binding
Details: RNA library: Library-2
Please go through the items and note down their pull-down binding Z-score.
No unit in the answer, only the number.

// query pull-down binding Z-score value for entry UUUUGAAAGUAACUUGGCGAAA [hsa-mir-548ad]
-0.179

Any idea what its pull-down binding Z-score is? The sequence is CUGAGGACAUGCAGUUUCAG [hsa-mir-7702]
-0.471

Would you mind telling me what pull-down binding Z-score value was observed for `UAUUAUUGCUAUGUCUGCUUUUGCAAUGAUG` ?
-1.09

What value of measured pull-down binding Z-score is listed for GCAGUAUAAUUAAUAACUAAUUACUGU [SARS-CoV-2-Conserved-Structured-36_Interval-120-237_Motif_1] ?
-0.577

Entry GUUGGGGAACAGGUGGUUAGCACUUCAU [hsa-mir-5196] : reported pull-down binding Z-score = ?
1.07

Requested read-out: pull-down binding Z-score. Entry: GACUGGACAACAUGAUGAGCCCAAACCAAUC [hsa-mir-5092]
-0.245

What value of pull-down binding Z-score has been recorded for this entry: UCCACACUGACAAGGGCCGUGGGG [hsa-mir-3191]
1.19

Which pull-down binding Z-score value belongs to `CAGACUUUAUGAGUGUCUCUAUAGAAAUAGAGAUGUUGACACAGACUUUGUGAAUGAGUUUUACGCAUAUUUGCGUAAACAUUUCUCAAUGAUGAUACUCUCUG` ?
-0.919

Requested read-out: pull-down binding Z-score. Entry: GUGUACCUUCCUUACCCAGAUCCAUCAAGAAUCCUAGGGGCCGGCUGUUUUGUAGAUGAUAUCGUAAAAACAGAUGGUACAC [SHAPE_invivo_SARS-CoV-2_Multi_39_ComplexLevel_1]
0.725

Look up pull-down binding Z-score: CUGCUCUCCCUGGCAGCAAG [hsa-mir-7109]
-0.207

Would you mind telling me what pull-down binding Z-score value was observed for AAUAUUGCUUUGCUUGUACAGUAAGUGACAACAGAUGUUUCAUCUCGUUGACUUUCAGGUUACUAUAGCAGAGAUAUU [DMSMaPseq_invitro_SARS-CoV-2_Motif_488] ?
-0.135

Which pull-down binding Z-score reading was recorded for the sequence CAGUGGCAUCUGUCAUUG [hsa-mir-4663] ?
-0.159

Given `UACCUUUUGCUAUGGGUA` , state its recorded pull-down binding Z-score.
-0.317

Sample AAACGUGCUCAGUGUCUUUAUAACAGGAAAGCCGUAAAC [hsa-mir-1272] — what was its pull-down binding Z-score?
0.0446

Looking for the measured pull-down binding Z-score of UUUCUUAAAUUUUAUAUAUUGGAA [hsa-mir-1284] , can you help?
0.193

Give the measured pull-down binding Z-score of GGUGGGUGGGAAGUAAGAUCUGACCUGGACUCCAUCCCACCCACC [hsa-mir-4640] .
4.87

Report pull-down binding Z-score for GAUGAAGAUUAAUCCCUAAUCCCCAACA [hsa-mir-6757] please.
-0.283

Entry GAUUUUUUAGAUUCUAAAGAAAC [hsa-mir-1255a] has what pull-down binding Z-score?
-0.837

GET /values?readout=pull-down binding Z-score&item= UGUUAGUGUUCAAGUCUACA [hsa-mir-4802]
-0.747

# get_value(readout='pull-down binding Z-score', item= CUUAGUAGGUGAUAGCAUGACUGAC [hsa-mir-5002] )
0.324

Record request: pull-down binding Z-score value, item CGUUGAGUGGGCACCCGAGAAGCCAUCG [hsa-mir-425]
0.0191

For the sequence shown here, GCCUUUCAACAUAAUGGC [hsa-mir-548w] , give the reported pull-down binding Z-score.
-0.0045

What pull-down binding Z-score value was documented for this sequence, CCAUUAUUUUUAAUAAUUAUAAUAAUGG [hsa-mir-548s] ?
0.0929

Give the measured pull-down binding Z-score of CUUUAUUAGAAG [DMSMaPseq_invitro_SARS-CoV-2_Motif_195] .
-0.165

Given the sequence AGUUGAACACUUGUUGGGACAACCU [hsa-mir-4421] , what is its reported pull-down binding Z-score?
0.939

What measured pull-down binding Z-score goes with AAGUUAAUUUUCCUCUGGCUGUUAUGGCCAGUAACUU [SHAPE_invivo_SARS-CoV-2_Motif_506] ?
-0.74

Using the record for GGUAGAGAUGAUUUUUCCUACU [hsa-mir-5003] , report its pull-down binding Z-score.
1.76

What pull-down binding Z-score value was documented for this sequence, UGCAGAUGUGGACUGCUAAAUGCA [hsa-mir-1253] ?
-0.411

Look up pull-down binding Z-score for this sequence: GCGCUGCCAGAAACUGGCCAGCGC [bulge-C]
-0.488

Entry under review: CUGCAGGAAAGGGAAGACCAAGGCUUGCUGUCUGUCCAGUCUGCCACCCUACCCUGU [hsa-mir-1231] . Reported pull-down binding Z-score?
-0.0839

Suppose we examine the sequence `ACCAUUGGUAGAUUUGCCAAUAGGU` ; what pull-down binding Z-score value has been reported?
-0.133

I am curious: what pull-down binding Z-score value has been reported for UUUUGUCUGA [hsa-mir-553] ?
-0.414

Value lookup for pull-down binding Z-score; key = UGCCAUUACUCUCAGUGGCA [hsa-mir-548y]
-0.836

Look up pull-down binding Z-score for this sequence: `GAUGCUGUUGUGUGUUUCAAUAGCACUUAUGCAUC`
-0.907

State the recorded pull-down binding Z-score for this entry: UCCUGAGACAGGA [hsa-mir-4261]
-0.563

Which measured pull-down binding Z-score value corresponds to `GCCACGUAUAAACCAAAUACCUGGUGUAUACGUUGU` ?
0.576

What measured pull-down binding Z-score goes with `CAUGCAAAUUACAUAUUUUGGAGGAAUACAAAUCCAAUUCAGUUGUCUUCCUAUUCUUUAUUUGACAUG` ?
-0.857

Entry GUGCAGCUUGUACCUGCAC [hsa-mir-1293] : reported pull-down binding Z-score = ?
-0.154

Fill blank: measured pull-down binding Z-score of the sequence CAGCAGCAGCAGCAGCAGCAGCAGCAGCAGCAGCAGCAGCAGCAGCAG [r(CAG)16] is ____.
0.922

What pull-down binding Z-score value was documented for this sequence, UGCCUACUACUGAUGACAUACAAUGUAAGUGCUCAUUUAGGCG [hsa-mir-5696] ?
-0.702

Bench note: what pull-down binding Z-score did CUGAUUCAGAAAGAUCAUCGG [hsa-mir-127] show?
-0.444

Values from the supplement of paper PMC11865577
